measured.on: Tumor necrosis factor (Homo sapiens)
Sequence (P01375 whole entry, the tested form may be a part): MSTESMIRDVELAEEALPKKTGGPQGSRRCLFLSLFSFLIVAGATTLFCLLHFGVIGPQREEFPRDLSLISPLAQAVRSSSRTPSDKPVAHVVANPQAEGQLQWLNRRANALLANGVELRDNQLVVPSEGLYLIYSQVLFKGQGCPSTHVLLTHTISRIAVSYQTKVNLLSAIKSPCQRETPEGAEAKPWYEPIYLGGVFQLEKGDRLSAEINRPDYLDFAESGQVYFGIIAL
method: Binding affinity to human TNF-alpha soluble domain assessed as decrease in complex formation with human TNFR1 extracellular domain preincubated for 1 hr followed by receptor addition measure after 2 hrs by TR-FRET assay
reported.metric: IC50 (nM)
Numbers only, in nM.

What the record says about "Nc1nccc(N(Cc2ccccc2)c2ccccc2-c2cccc(-c3cnc(N4CCNCC4)nc3)c2)n1" : IC50 is 1200

---

measured.on: Tumor necrosis factor (Homo sapiens)
method: Binding affinity to human TNF-alpha soluble domain assessed as decrease in complex formation with human TNFR2 extracellular domain preincubated for 1 hr followed by receptor addition measure after 2 hrs by TR-FRET assay
reported.metric: IC50 (µM)
Answers are plain numbers, in µM.

What the record says about "Nc1nccc(N(Cc2ccccc2)c2ccccc2-c2cccc(-c3cnc(N4CCNCC4)nc3)c2)n1" : IC50 is 1.1

Origin of values: ChEMBL document CHEMBL4007494
